Numbers sourced from ChEMBL document CHEMBL1123903.

Catalogue of Delta MST values
System: Plasmodium berghei
Experiment: Change in mean survival time of trophozoite-induced Plasmodium berghei infection after 20 mg/kg subcutaneous dose
Type: functional
property_name: Delta MST

molecule: CCN(CC)Cc1cc(Nc2cc[n+]([O-])c3cc(Cl)ccc23)cc(C(C)(C)C)c1O
property_name: Delta MST
reading: 0.1 days

molecule: CCN(CC)Cc1cc(Nc2cc[n+]([O-])c3cc(Cl)ccc23)cc(Sc2ccc(Cl)cc2)c1O
property_name: Delta MST
reading: 0.5 days

molecule: CCN(CC)Cc1cc(Nc2cc[n+]([O-])c3cc(Cl)ccc23)cc(C2CCCCC2)c1O
property_name: Delta MST
reading: 0.5 days

molecule: CCN(CC)Cc1cc(Nc2ccnc3cc(Cl)ccc23)cc(C(C)(C)C)c1O
property_name: Delta MST
reading: 0.1 days

molecule: CCN(CC)Cc1cc(Nc2cc[n+]([O-])c3cc(Cl)ccc23)cc(C)c1O
property_name: Delta MST
reading: 7.6 days

molecule: CCC(C)c1cc(Nc2ccnc3cc(Cl)ccc23)cc(CN(CC)CC)c1O (stereo not given)
property_name: Delta MST
reading: 18 days

molecule: CCN(CC)Cc1cc(Nc2cc[n+]([O-])c3cc(Cl)ccc23)cc(C(C)C)c1O
property_name: Delta MST
reading: 11.8 days

molecule: CCN(CC)Cc1cc(Nc2ccnc3cc(Cl)ccc23)cc(C2CCCCC2)c1O
property_name: Delta MST
reading: 0.5 days

molecule: CCN(CC)Cc1cc(Nc2ccnc3cc(Cl)ccc23)cc(C)c1O
property_name: Delta MST
reading: 10.4 days

molecule: CCN(CC)Cc1cc(Nc2ccnc3cc(Cl)ccc23)cc(C(C)C)c1O
property_name: Delta MST
reading: 18.1 days

###

Catalogue of Cures values
Tested on: Mus musculus
Assay: Number of mice surviving at 60 days postinfection when administered as a single dose of 80 mg/kg (sc) 72-h post infection (delta MST)
Format: functional
property_name: Cures

compound: CCc1cc(Nc2cc[n+]([O-])c3cc(Cl)ccc23)cc(CN(CC)CC)c1O
property_name: Cures
reading: 3
//
compound: CCN(CC)Cc1cc(Nc2ccnc3cc(Cl)ccc23)cc(C)c1O
property_name: Cures
reading: 4
//
compound: CC(C)(C)NCc1cc(Nc2ccnc3cc(Cl)ccc23)cc(-c2ccc(Cl)cc2)c1O [TEBUQUINE]
property_name: Cures
reading: 3
//
compound: CCN(CC)Cc1cc(Nc2cc[n+]([O-])c3cc(Cl)ccc23)cc(C(C)C)c1O
property_name: Cures
reading: 1
//
compound: CCN(CC)Cc1cc(Nc2ccnc3cc(Cl)ccc23)cc(C2CCCCC2)c1O
property_name: Cures
reading: 2

###

Tested on: Mus musculus
Assay: Number of mice surviving at 60 days postinfection when administered as a single dose of 80 mg/kg (sc) 72-h post infection (delta MST)
Format: functional

compound: CCN(CC)Cc1cc(Nc2cc[n+]([O-])c3cc(Cl)ccc23)cc(C)c1O
Cures: 1
--
compound: CCN(CC)Cc1cc(Nc2ccnc3cc(Cl)ccc23)cc(C(C)C)c1O
Cures: 4
--
compound: CCN(CC)Cc1cc(Nc2ccnc3cc(Cl)ccc23)c2c(c1O)CCCC2
Cures: 2
--
compound: CCc1cc(Nc2ccnc3cc(Cl)ccc23)cc(CN(CC)CC)c1O
Cures: 2
--
compound: CCC(C)c1cc(Nc2ccnc3cc(Cl)ccc23)cc(CN(CC)CC)c1O (stereo not given)
Cures: 2
